Each item that follows carries a reported % soluble aggregate.
assay: Soluble aggregates of transiently expressed antibodies; assay type: physicochemical; settings: Protein A purified antibody
// return numeric value only (unit: %, not printed)

molecule="J1-183D variant 2: humanised/de-immunised J1-183D: J1-183D_VL_1 + J1-183D_VH_2 (antibody, V domains shown) VH: QVQLVQSGAELKKPGASVKVSCKVSGYAFTDYAIHWIRQAPGQGLEWMGIINTYYGDSKYAQKFQGRVTMTVDTSTSTAYMELSSLRSEDTAVYYCARGYDGFAYWGQGTLVTVSSASTKGP VL: DIQMTQSPSSLSASVGDRVTITCRTSENIYSYLTWYQQKPGKAPKLLVYNAKILAAGVPSRFSGSGSGTDFTLTISSLQPEDFATYYCQHHYDIPWTFGGGTKLEIKRT" output_unit=% measured_result=3.58

Measured % soluble aggregate, J1-65D chimeric: chimeric antibody with unaltered CDRs: J1-65D_VL + J1-65D_VH (antibody, V domains shown) VL: DIQLTQSPASLSASVGETVTITCRASGNIHNYLAWYQQKQGKSPQLLVYNAKTLADDIPSRFSGSGSGTQYSLKINSLQPEDFGSYYCQHFWSAPWTFGGGTKLEIK VH: QVQLQQPGAELVRPGASVKLSCKALGYTFTDYEMHWVKETPVHGLEWIGAIQPGGGGTAYNQKFKGKATLTADKSSSTAYMELSSLTSEDSAVYYCTRRGYDDYPFAYWGQGTLVTVSS : 0
